- system: COX-1 (Homo sapiens)
- Construct: COX-1 is constitutively expressed in platelets; endogenous in cells; host or cells: heparinized human whole blood (platelets, A23187-stimulated)
- Sequence (P23219 24-599): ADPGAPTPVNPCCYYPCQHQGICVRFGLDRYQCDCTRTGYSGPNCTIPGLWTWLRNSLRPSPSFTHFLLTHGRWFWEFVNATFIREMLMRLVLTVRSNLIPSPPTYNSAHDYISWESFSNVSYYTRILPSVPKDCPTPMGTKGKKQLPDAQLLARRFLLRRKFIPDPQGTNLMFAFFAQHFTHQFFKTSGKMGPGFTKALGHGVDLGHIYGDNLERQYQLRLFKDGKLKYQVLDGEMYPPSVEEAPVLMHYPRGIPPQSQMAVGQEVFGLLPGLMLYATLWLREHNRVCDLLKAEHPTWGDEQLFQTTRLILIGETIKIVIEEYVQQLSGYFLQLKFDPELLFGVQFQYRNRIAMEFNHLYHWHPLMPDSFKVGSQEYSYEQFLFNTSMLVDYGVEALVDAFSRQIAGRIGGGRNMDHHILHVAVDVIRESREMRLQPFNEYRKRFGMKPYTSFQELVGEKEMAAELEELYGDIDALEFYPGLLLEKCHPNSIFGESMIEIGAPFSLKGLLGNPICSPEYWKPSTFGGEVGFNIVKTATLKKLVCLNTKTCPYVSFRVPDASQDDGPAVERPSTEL
- measurement_protocol: COX-1 inhibition in human whole blood (A23187-stimulated TxB2 production)
- Type: cell-based
- measurement_context: TxB2 after A23187 50 μM 1 h, average where more than one assay, read-out: COX-1_Blood IC50 [μM] (Avg)
Listing of entries alongside the reported IC50.
Answer with a number only, understood to be in µM.

Any idea what IC50 was measured for Cc1ccc(Nc2ccc(Cl)c(C)c2F)c(CC(=O)O)c1 ?
129

// next record CCc1ccc(Nc2ccc(Cl)c(C(C)C)c2F)c(CC(=O)O)c1
127

Same question, CCc1ccc(Nc2ccc(C)c(C(F)(F)F)c2F)c(CC(=O)O)c1 this time
155

Next compound up: Cc1ccc(Nc2ccc(Cl)c(C)c2Cl)c(CC(=O)O)c1
126

Field: next compound
What IC50 value was documented for this compound, CCc1c(Cl)ccc(Nc2ccc(C)cc2CC(=O)O)c1F ?
183

---

- system: COX-2 (Homo sapiens, UniProt P35354)
- Construct: COX-2 expression is induced in mononuclear cells by treatment with lipopolysaccharide (LPS); endogenous in cells; host or cells: heparinized human whole blood (mononuclear cells, LPS-induced)
- Sequence (P35354 18-604): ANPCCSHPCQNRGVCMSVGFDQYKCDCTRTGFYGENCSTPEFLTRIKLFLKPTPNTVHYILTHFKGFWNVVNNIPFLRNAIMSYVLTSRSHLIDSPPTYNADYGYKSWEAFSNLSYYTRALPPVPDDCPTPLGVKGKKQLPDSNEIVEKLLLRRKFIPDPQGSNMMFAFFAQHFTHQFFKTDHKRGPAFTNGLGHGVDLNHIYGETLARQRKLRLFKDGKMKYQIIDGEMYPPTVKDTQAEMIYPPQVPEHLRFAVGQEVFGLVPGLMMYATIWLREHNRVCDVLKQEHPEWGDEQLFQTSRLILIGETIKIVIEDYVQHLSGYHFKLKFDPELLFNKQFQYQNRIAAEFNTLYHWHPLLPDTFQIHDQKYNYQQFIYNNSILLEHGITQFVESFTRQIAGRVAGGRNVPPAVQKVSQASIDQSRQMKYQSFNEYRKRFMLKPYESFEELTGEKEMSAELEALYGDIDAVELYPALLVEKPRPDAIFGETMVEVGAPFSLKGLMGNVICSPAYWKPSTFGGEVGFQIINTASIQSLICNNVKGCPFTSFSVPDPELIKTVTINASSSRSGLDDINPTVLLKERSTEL
- measurement_protocol: COX-2 inhibition in human whole blood (LPS-induced PGE2 production)
- Format: cell-based
- measurement_context: PGE2 after LPS 10 μg/mL overnight, average where more than one assay, read-out: COX-2_Blood IC50 [μM] (Avg)
Measured IC50 of individual entries
Answer in µM, number only, no unit symbol.

# query: IC50 | item CCc1ccc(Nc2ccc(C)c(C(F)(F)F)c2F)c(CC(=O)O)c1 | system: COX-2 (Homo sapiens, UniProt P35354)
0.1

Queued: Cc1ccc(Nc2ccc(Cl)c(C)c2Cl)c(CC(=O)O)c1
0.073

---

Each item that follows carries a reported IC50.
- system: COX-2 (Homo sapiens)
- Construct: COX-2 expression is induced in mononuclear cells by treatment with lipopolysaccharide (LPS); endogenous in cells; host or cells: heparinized human whole blood (mononuclear cells, LPS-induced)
- measurement_protocol: COX-2 inhibition in human whole blood (LPS-induced PGE2 production)
- Type: cell-based
- measurement_context: PGE2 after LPS 10 μg/mL overnight, average where more than one assay, read-out: COX-2_Blood IC50 [μM] (Avg)
Reply with just the number (in µM).

Here are 2 molecules together with their reported answers.
Look at this molecule and give its reported IC50. CCc1c(Cl)ccc(Nc2ccc(C)cc2CC(=O)O)c1F [Example 5k]
0.165

Try this molecule next: CCc1ccc(Nc2ccc(Cl)c(C(C)C)c2F)c(CC(=O)O)c1 [Example 5m]
0.17

---
For Cc1ccc(Nc2ccc(Cl)c(C)c2F)c(CC(=O)O)c1 [Example 5i] , what is its reported IC50?
0.295
